molecular target: Zap-70 (Homo sapiens, UniProt P43403); construct: Kinases are expressed as either kinase domains or full length constructs; made in house; assay: Kinase inhibition assay (33P transfer), Zap-70; format: biochemical; settings: Table 3, class symbols; read-out: Zap-1
Sequence (P43403 whole entry, species assumed, the tested form may be a part): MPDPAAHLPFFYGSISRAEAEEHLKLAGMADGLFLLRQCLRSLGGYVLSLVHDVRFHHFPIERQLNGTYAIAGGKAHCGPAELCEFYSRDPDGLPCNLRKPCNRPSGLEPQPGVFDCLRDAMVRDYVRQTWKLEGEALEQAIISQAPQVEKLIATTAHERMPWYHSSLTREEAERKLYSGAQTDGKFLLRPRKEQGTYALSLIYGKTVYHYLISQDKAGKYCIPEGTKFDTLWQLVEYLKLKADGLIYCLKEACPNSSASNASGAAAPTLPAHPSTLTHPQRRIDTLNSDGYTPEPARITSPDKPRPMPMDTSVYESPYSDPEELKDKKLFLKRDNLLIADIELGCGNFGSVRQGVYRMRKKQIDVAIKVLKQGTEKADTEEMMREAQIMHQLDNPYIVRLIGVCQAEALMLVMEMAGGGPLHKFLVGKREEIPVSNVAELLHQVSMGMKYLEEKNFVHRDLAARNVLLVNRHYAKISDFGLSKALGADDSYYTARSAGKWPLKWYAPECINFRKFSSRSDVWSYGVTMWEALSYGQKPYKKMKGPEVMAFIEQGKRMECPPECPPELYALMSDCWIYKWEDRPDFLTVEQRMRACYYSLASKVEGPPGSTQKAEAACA
Exercise: state measured IC50 for each of the compounds provided.

Examples with answers:
# compound, IC50
records = [
    ("COc1cc(Nc2ncnc(-c3cccnc3N[C@H](C)c3ccccc3)n2)cc(OC)c1OC", "> 9.81 µM"),
    ("C=CCN(c1cccc(Cl)c1)c1ncnc(Nc2cc(OC)cc(OC)c2)n1", "> 11.3 µM"),
    ("COC(=O)c1ccc(-c2cc(Nc3ncnc(NCCc4ccc(OC)cc4)n3)[nH]n2)cc1", "> 10.1 µM"),
    ("FC(F)(F)Oc1ccc(Nc2ncnc(Nc3ccc4c(cnn4Cc4ccccc4)c3)n2)cc1", "> 9.43 µM"),
    ("COc1ccc(Nc2ncnc(N(C)C3CCN(Cc4ccccc4)C3)n2)cc1OC (centres unmarked)", "> 10.7 µM"),
]

Provide IC50 values for the following items, in order.
1. COc1ccc(CNc2ncnc(Nc3cc(-c4ccco4)[nH]n3)n2)cc1OC
2. COc1ccc(Nc2ncnc(Nc3ccc(F)c(F)c3)n2)cc1OC
3. COc1cc(Nc2ncnc(-n3ccnc3Cl)n2)cc(OC)c1OC

a:
1: 6.1 to 8.9 µM; 2: 9.74 to 12.5 µM; 3: > 12.4 µM

Source listed as patent US7074789B2.
